Target: MOR (μ opioid receptor) (Homo sapiens, UniProt P35372)
Construct: expressed in transfected cells; host or cells: HEK293
Sequence (P35372 whole entry, species assumed): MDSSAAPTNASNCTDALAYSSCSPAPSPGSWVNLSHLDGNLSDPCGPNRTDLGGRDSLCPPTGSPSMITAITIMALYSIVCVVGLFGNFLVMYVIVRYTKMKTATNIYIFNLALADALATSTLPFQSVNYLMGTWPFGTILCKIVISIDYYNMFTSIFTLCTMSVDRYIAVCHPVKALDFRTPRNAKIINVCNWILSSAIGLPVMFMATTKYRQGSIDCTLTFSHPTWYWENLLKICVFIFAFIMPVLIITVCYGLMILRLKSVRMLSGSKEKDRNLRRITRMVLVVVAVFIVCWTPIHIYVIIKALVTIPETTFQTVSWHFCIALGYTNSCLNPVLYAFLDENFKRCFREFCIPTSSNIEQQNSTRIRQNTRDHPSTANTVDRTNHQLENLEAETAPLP
Assay: MOR radioligand binding ([3H]-DAMGO, HEK293 cell homogenates)
Conditions: Percent inhibition at 10,000 nM; [3H]-DAMGO
testReadout: inhibition at 10 µM (%)
Numbers only; they are read as %.

// known answers, use as guide
> print(dat)
                                   molecule                            measuredtarget  reported
1  Cc1noc(-c2ncn3c2[C@@H](C)N=C(c2ccccc2F)c2cc(C4CC4)ccc2-3)n1  MOR (μ opioid receptor) (Homo sapiens, UniProt P35372)         8
2  C#Cc1ccc2c(c1)C(c1ccccn1)=N[C@H](C)c1c(-c3nc(CC)no3)ncn1-2  MOR (μ opioid receptor) (Homo sapiens, UniProt P35372)         0
3  Brc1ccc2c(c1)C(c1ccccc1)=NCc1c(-c3cnco3)ncn1-2  MOR (μ opioid receptor) (Homo sapiens, UniProt P35372)        11
4  C#Cc1ccc2c(c1)C(c1ccccc1F)=N[C@H](C)c1c(C(N)=O)ncn1-2  MOR (μ opioid receptor) (Homo sapiens, UniProt P35372)         2
5  Cc1noc(-c2ncn3c2[C@@H](C)N=C(c2ccccc2F)c2cc(Br)ccc2-3)n1  MOR (μ opioid receptor) (Homo sapiens, UniProt P35372)        26

Q. Fill in inhibition at 10 µM for record Cc1ncoc1-c1ncn2c1CN=C(c1ccccc1)c1cc(Br)ccc1-2
A. 12

Q. Fill in inhibition at 10 µM for record C#Cc1ccc2c(c1)C(c1ccccn1)=NCc1c(-c3ocnc3C)ncn1-2
A. 32

Q. Quick one: give measured inhibition at 10 µM for CCOC(=O)c1ncn2c1[C@H](C)N=C(c1ccccc1F)c1cc(Br)ccc1-2 [SH-I-048B]
A. 0

---

Tested on: RAW macrophages
Assay: NO production (Griess assay), LPS/IFNγ-activated RAW264.7 macrophages
Assay type: cell-based, mouse
Conditions: Mus musculus, Macrophage, 24 h
inhibition at 10 µM values, listed per item
Just the number please, in %, no unit attached.

Use the examples below as a reference point.
> print(dat)
                                   compound          testreadout  reported
1  CCc1noc(-c2ncn3c2[C@@H](C)N=C(c2ccccc2F)c2cc(C4CC4)ccc2-3)n1 [GL-IV-03]  inhibition at 10 µM        75
2  CCOC(=O)c1ncn2c1[C@@H](C)N=C(c1ccccc1F)c1cc(C3CC3)ccc1-2 [GL-III-42]  inhibition at 10 µM         0
3  CC(C)c1noc(-c2ncn3c2[C@@H](C)N=C(c2ccccc2F)c2cc(Br)ccc2-3)n1 [GL-IV-01]  inhibition at 10 µM        17
4  C[C@H]1N=C(c2ccccc2F)c2cc(Br)ccc2-n2cnc(C(=O)N(C)C)c21 [GL-III-69]  inhibition at 10 µM         0

Now let's try a different one.
Q. Respond only with inhibition at 10 µM recorded for C[C@H]1N=C(c2ccccc2F)c2cc(Cl)ccc2-n2cnc(C(=O)O)c21 [GL-III-54]
A. 6

---

Tested on: RAW macrophages
Test: NO production (Griess assay), LPS/IFNγ-activated RAW264.7 macrophages
Assay type: cell-based, mouse
Details: 10 μM, 24 hours, 1 μM GABA, LPS/IFNγ
Consider the cut-off 3%. If the recorded Inhibition of NO production (%) RAW macrophages 10 μM is strictly smaller, the label is condition met; if not, the label is condition not met.

Below are worked cases with known answers.
> print(dat)
                                   compound        answerlabel
1  CC1N=C(c2ccccc2F)c2cc(Br)ccc2-n2cnc(C(=O)[O-])c21.[Na+] (centres unmarked)  condition not met
2  C#Cc1ccc2c(c1)C(c1ccccn1)=N[C@H](C)c1c(-c3nc(CC)no3)ncn1-2  condition not met
3  CC1N=C(c2ccccn2)c2cc(Br)ccc2NC1=O (centres unmarked)      condition met

As a next step, examine the compound that follows.
Q. # strict comparison: is reported Inhibition of NO production (%) RAW macrophages 10 μM < 3%? input = C#Cc1ccc2c(c1)C(c1ccccc1F)=NC(C)C(=O)N2C (centres unmarked) [GL-III-24]
A. condition not met

---

Target: BZR (benzodiazepine site of GABAAR)
Assay: GABAAR/BZR binding, rat brain homogenate with 3H-flunitrazepam
Conditions: rat brain homogenate, 3H-flunitrazepam
Method: Ligand affinities were determined for KOR (κ opioid receptor), DOR (δ opioid receptor), and MOR (μ opioid receptor) using radioligand binding assays at a screening concentration of 10,000 nM. […] Gamma aminobutyric acid type A receptor (GABAAR) binding was determined with rat brain homogenate and ^3H-flunitrazepam. […] Psychoactive Drug Screening Program. […] Total binding and nonspecific binding are determined in the absence and presence of 10 μM of appropriate reference compound, respectively. […]
testReadout: Ki

Previously resolved entries follow.
> print(dat)
                                   compound                       measuredtarget  reported
1  C[C@H]1N=C(c2ccccc2F)c2cc(Cl)ccc2-n2cnc(C(=O)O)c21  BZR (benzodiazepine site of GABAAR)  0.042 µM
2  C#Cc1ccc2c(c1)C(c1ccccc1F)=N[C@@H](C)c1c(C(=O)O)ncn1-2  BZR (benzodiazepine site of GABAAR)  0.029 µM
3  C#Cc1ccc2c(c1)C(c1ccccc1F)=N[C@H](C)c1c(C(=O)NCC)ncn1-2  BZR (benzodiazepine site of GABAAR)  0.068 µM

Q. Input C#Cc1ccc2c(c1)C(c1ccccc1F)=N[C@H](C)c1c(C(=O)O)ncn1-2 , output reported Ki.
A. 0.037 µM

Q. Report Ki, nothing else, for this compound: Cc1noc(-c2ncn3c2[C@@H](C)N=C(c2ccccc2F)c2cc(Br)ccc2-3)n1
A. 0.784 µM

Q. For the compound CCOC(=O)c1ncn2c1[C@@H](C)N=C(c1ccccc1F)c1cc(C3CC3)ccc1-2 , report Ki.
A. 0.726 µM

---

Molecular target: KOR (κ opioid receptor) (Homo sapiens)
Construct: expressed in transfected cells; host or cells: HEK293 (stably transfected)
Sequence (P41145 whole entry): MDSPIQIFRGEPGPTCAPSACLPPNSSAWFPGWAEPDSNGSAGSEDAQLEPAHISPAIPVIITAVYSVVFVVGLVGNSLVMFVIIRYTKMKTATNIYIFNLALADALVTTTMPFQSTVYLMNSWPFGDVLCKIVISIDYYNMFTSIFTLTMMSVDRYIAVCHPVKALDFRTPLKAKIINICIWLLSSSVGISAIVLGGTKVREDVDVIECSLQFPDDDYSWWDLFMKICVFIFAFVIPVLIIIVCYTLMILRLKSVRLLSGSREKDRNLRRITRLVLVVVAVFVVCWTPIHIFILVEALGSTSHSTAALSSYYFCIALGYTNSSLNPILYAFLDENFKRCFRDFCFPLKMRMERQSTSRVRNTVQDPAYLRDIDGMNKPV
Assay: KOR radioligand binding ([3H]-U69593, HEK293 cell homogenates)
Settings: Percent inhibition at 10,000 nM; [3H]-U69593
Description: Radioligand binding assays. Detailed protocols for the primary and secondary radioligand binding assays can be found in the National Institute of Mental Health's Psychoactive Drug Screening Program (NIMH PDSP) Assay Protocol Book (Roth, 2018). […] Total binding and nonspecific binding are determined in the absence and presence of 10 μM of appropriate reference compound (Naltrindole DOR, Salvinorin A KOR and DAMGO MOR). […] The data (n=6) were analyzed by nonlinear regression. […]
Given measured inhibition at 10 µM, output Yes if it is greater than or equal to 50% and No if not.

// known answers, use as guide
> print(dat)
                            smilesstructure  answerlabel
1  C#Cc1ccc2c(c1)C(c1ccccn1)=NCc1c(-c3nc(C)no3)ncn1-2           No
2  C#Cc1ccc2c(c1)C(c1ccccc1F)=N[C@@H](C)c1c(-c3nc(C)no3)ncn1-2          Yes
3  C#Cc1ccc2c(c1)C(c1ccccc1F)=N[C@H](C)c1c(C(=O)O)ncn1-2           No
4  C#Cc1ccc2c(c1)C(c1ccccc1F)=N[C@@H](C)c1c(C(=O)OC(C)(C)CC)ncn1-2          Yes
5  C#Cc1ccc2c(c1)C(c1ccccn1)=N[C@H](C)c1c(C(=O)OC)ncn1-2           No
6  C#Cc1ccc2c(c1)C(c1ccccc1F)=N[C@@H](C)c1c(C(=O)NC(C)(C)C)ncn1-2          Yes

# next compound below
Q. Is the recorded value of inhibition at 10 µM equal to or greater than 50% for this compound? C#Cc1ccc2c(c1)C(c1ccccn1)=NCc1c(-c3ocnc3C)ncn1-2
A. No

---

System: HEK293
Assay: Viability assay (CellTiter-Glo), HEK293
Assay type: cell-based, human
Conditions: 120 μM, CellTiter-Glo
Recorded measurements of Cell viability (%) HEK293 120 μM, one per entry
Number in %, nothing else.

These recorded examples may help you get a feel for the data.
> print(dat)
                                   compound  reported
1  C#Cc1ccc2c(c1)C(c1ccccc1F)=N[C@H](C)c1c(-c3cnco3)ncn1-2 [GL-III-73]        86
2  C#Cc1ccc2c(c1)C(c1ccccc1F)=NC(C)c1c(C(=S)NC)ncn1-2 (centres unmarked) [GL-III-84]        64
3  C#Cc1ccc2c(c1)C(c1ccccn1)=N[C@H](C)c1c(-c3nc(CC)no3)ncn1-2 [GL-III-97]        54
4  C#Cc1ccc2c(c1)C(c1ccccc1F)=N[C@H](C)c1c(-c3nc(CC)no3)ncn1-2 [MP-IV-005]        68
5  CCc1noc(-c2ncn3c2CN=C(c2ccccn2)c2cc(Br)ccc2-3)n1 [GL-III-99]        87
6  CCOC(=O)c1ncn2c1[C@@H](C)N=C(c1ccccc1F)c1cc(C3CC3)ccc1-2 [GL-III-42]        62
7  C[C@H]1N=C(c2ccccc2F)c2cc(Cl)ccc2-n2cnc(C(=O)O)c21 [GL-III-54]        96
8  C#Cc1ccc2c(c1)C(c1ccccc1)=NCC(=O)N2 [GL-III-59]       100

Q. Supply Cell viability (%) HEK293 120 μM value. Item: C#Cc1ccc2c(c1)C(c1ccccc1F)=N[C@H](C)c1c(-c3nc(C(C)C)no3)ncn1-2 [MP-IV-010]
A. 41

Q. Return value of Cell viability (%) HEK293 120 μM for input C#Cc1ccc2c(c1)C(c1ccccc1)=NCc1c(C(=O)OCCCO)ncn1-2 [GL-I-48] , no commentary.
A. 65

Q. # return recorded Cell viability (%) HEK293 120 μM for entry C[C@H]1N=C(c2ccccn2)c2cc(Br)ccc2-n2cnc(C(=O)O)c21 [GL-II-51]
A. 91

Q. Using the record for C#Cc1ccc2c(c1)C(c1ccccn1)=NCc1c(-c3cnco3)ncn1-2 [KRM-II-81] , state its measured Cell viability (%) HEK293 120 μM.
A. 96

Q. Return Cell viability (%) HEK293 120 μM for the following compound: CCc1noc(-c2ncn3c2[C@@H](C)N=C(c2ccccc2F)c2cc(Br)ccc2-3)n1 [GL-III-98]
A. 42

Q. Give Cell viability (%) HEK293 120 μM for C#Cc1ccc2c(c1)C(c1ccccc1)=NCc1c(C(=O)NC)ncn1-2 [YT-III-31]
A. 96

Q. Give the reported value of Cell viability (%) HEK293 120 μM for this record: CC1N=C(c2ccccc2F)c2cc(Cl)ccc2NC1=O (centres unmarked) [GL-III-52]
A. 73

Q. Determine its reported Cell viability (%) HEK293 120 μM: CC1N=C(c2ccccc2F)c2cc(Br)ccc2-n2cnc(C(=O)[O-])c21.[Na+] (centres unmarked) [GL-IV-18]
A. 88

Q. Provide one value: measured Cell viability (%) HEK293 120 μM of CC1N=C(c2ccccc2F)c2cc(Br)ccc2-n2cnc(C=O)c21 (centres unmarked) [GL-III-75]
A. 73
